system: convulsions induced by pentylenetetrazole (Pentazol); assay: protection from convulsions and death induced by pentylenetetrazole (Pentazol); type: in vivo; details: Mus musculus, ip; protects 50% of mice from convulsions and death; test compound intraperitoneal, 15-30 minutes before Pentazol
Reported log10 ED50 values are given for each entry in this list.
Field: value | Transform: log10 | Quantity: ED50 | Unit: mg/kg

// below: answered compounds
Compound: CCOC(=O)c1ncc2[nH]c3cccc(OCCc4ccccc4)c3c2c1COC
log10 ED50: 1.60
--
Compound: CCOC(=O)c1ncc2[nH]c3cccc(OCc4cccc(Cl)c4)c3c2c1COC [Substituent 3-chloro]
log10 ED50: -0.05
--
Compound: CCOC(=O)c1ncc2[nH]c3cccc(OCc4ccc(C)cc4)c3c2c1COC [Substituent 4-methyl]
log10 ED50: 1.48
--
Compound: CCOC(=O)c1ncc2[nH]c3cccc(OCc4cccc(F)c4)c3c2c1COC [Substituent 3-fluoro]
log10 ED50: 1.08
--
Compound: CCOC(=O)c1ncc2[nH]c3cccc(OCCCc4ccccc4)c3c2c1COC
log10 ED50: 1.48
--
Compound: CCOC(=O)c1ncc2[nH]c3cccc(OCc4ccccc4F)c3c2c1COC [Substituent 2-fluoro]
log10 ED50: 1.11
--
Compound: CCOC(=O)c1ncc2[nH]c3cccc(OCc4ccccc4)c3c2c1COC
log10 ED50: 1.18
--
Compound: CCOC(=O)c1ncc2[nH]c3cccc(OCc4ccc(C)c(C)c4)c3c2c1COC [3,4-dimethyl]
log10 ED50: 1.48

Kindly note the recorded log10 ED50 for CCOC(=O)c1ncc2[nH]c3cccc(OCc4cccc(Br)c4)c3c2c1COC [Substituent 3-bromo] , which is 0.78

Kindly note the recorded log10 ED50 for CCOC(=O)c1ncc2[nH]c3cccc(OC(C)c4ccccc4)c3c2c1COC (stereo not drawn) [α-methyl] , which is 0.48

Kindly note the recorded log10 ED50 for CCOC(=O)c1ncc2[nH]c3cccc(OCc4ccc(Cl)c(Cl)c4)c3c2c1COC [3,4-dichloro] , which is 0.78

Kindly note the recorded log10 ED50 for CCOC(=O)c1ncc2[nH]c3cccc(OC(C)c4cccc(Cl)c4)c3c2c1COC (stereo not drawn) [α-methyl, 3-chloro] , which is 0.30

Kindly note the recorded log10 ED50 for CCOC(=O)c1ncc2[nH]c3cccc(OCc4cccc(C(F)(F)F)c4)c3c2c1COC [3-trifluoromethyl] , which is 1.08

Kindly note the recorded log10 ED50 for CCOC(=O)c1ncc2[nH]c3cccc(OCc4ccc(F)cc4)c3c2c1COC [Substituent 4-fluoro] , which is 1.48

----------
test system: convulsions induced by pentylenetetrazole (Pentazol); experiment: protection from convulsions and death induced by pentylenetetrazole (Pentazol); type: in vivo; conditions: Mus musculus, ip; protects 50% of mice from convulsions and death; test compound intraperitoneal, 15-30 minutes before Pentazol
Property name: ED50

Chem smiles: CCOC(=O)c1ncc2[nH]c3cccc(OCc4ccc(Cl)cc4)c3c2c1COC
Experimental system: convulsions induced by pentylenetetrazole (Pentazol)
Property name: ED50
Result value: > 30 mg/kg

Kindly note the recorded ED50 for "CCOC(=O)c1ncc2[nH]c3cccc(OCc4ccc([N+](=O)[O-])cc4)c3c2c1COC" , which is > 50 mg/kg

Kindly note the recorded ED50 for "CCOC(=O)c1ncc2[nH]c3cccc(OCc4cccc(OC)c4)c3c2c1COC" , which is > 100 mg/kg
